Where these numbers come from: patent US11844843

Target: T1, recombinant cynomolgus monkey (Macaca fascicularis) TfR1 (cynomolgus monkey (Macaca fascicularis), UniProt Q5RDH6 87-760 (Pongo abelii entry), limits assumed)
T1 construct: Recombinant protein; also called cTfR1; cyTfR1
T1 chain: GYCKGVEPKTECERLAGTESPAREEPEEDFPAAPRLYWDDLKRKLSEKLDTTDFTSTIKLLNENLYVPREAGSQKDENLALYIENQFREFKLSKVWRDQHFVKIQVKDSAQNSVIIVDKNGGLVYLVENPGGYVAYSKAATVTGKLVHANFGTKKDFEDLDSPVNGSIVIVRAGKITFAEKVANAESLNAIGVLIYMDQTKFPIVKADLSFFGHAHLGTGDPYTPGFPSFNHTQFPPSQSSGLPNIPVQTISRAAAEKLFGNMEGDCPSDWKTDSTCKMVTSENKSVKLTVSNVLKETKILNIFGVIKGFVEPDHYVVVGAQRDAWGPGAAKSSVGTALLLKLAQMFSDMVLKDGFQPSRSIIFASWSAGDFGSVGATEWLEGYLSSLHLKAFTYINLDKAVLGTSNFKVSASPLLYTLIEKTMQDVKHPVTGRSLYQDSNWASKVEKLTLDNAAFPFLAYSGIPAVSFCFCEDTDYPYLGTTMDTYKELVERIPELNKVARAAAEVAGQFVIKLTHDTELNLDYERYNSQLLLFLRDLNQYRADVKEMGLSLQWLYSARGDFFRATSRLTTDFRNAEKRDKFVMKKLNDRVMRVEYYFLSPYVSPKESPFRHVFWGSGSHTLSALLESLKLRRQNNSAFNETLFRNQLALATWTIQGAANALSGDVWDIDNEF
Test: ELISA, recombinant TfR1 coated, unconjugated Fab (row 'Fab binding affinity ELISA')
READOUT: EC50

1. humanized anti-TfR Fab 3M12 VH3/Vκ3 (Fab, V domains shown, also called 3M12 (VH3/Vk3)) VH: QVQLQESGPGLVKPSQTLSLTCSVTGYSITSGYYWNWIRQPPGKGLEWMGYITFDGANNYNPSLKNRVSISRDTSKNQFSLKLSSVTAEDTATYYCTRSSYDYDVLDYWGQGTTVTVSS VL: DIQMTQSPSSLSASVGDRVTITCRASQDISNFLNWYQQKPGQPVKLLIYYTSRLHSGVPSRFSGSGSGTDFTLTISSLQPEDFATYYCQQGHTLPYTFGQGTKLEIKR ... 4.7 nM
2. humanized anti-TfR Fab 3A4 VH3 (N54S)/Vκ4 (Fab, V domains shown, also called 3A4 (VH3-N54S/Vk4)) VH: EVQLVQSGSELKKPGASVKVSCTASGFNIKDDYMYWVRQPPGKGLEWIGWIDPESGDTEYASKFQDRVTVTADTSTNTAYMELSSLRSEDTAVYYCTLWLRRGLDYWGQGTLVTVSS VL: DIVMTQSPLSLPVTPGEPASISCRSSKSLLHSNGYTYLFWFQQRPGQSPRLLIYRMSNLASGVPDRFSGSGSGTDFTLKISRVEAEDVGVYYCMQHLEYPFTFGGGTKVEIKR ... 398 nM
3. humanized anti-TfR Fab 3M12 VH4/Vκ3 (Fab, V domains shown, also called 3M12 (VH4/Vk3); anti-TfR Fab 3M12 VH4/Vk3) VH: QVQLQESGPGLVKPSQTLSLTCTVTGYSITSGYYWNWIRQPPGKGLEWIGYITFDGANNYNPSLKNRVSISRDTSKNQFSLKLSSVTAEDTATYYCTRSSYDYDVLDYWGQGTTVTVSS VL: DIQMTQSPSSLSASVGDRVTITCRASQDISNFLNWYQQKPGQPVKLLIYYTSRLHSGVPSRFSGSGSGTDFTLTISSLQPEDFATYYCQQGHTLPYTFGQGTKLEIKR ... 2.2 nM
